Catalogue of protein stability index readings, one per entry.
B1: HDAC6 (parent)
chain: QEGLLDRCVSFQARFAEKEELMLV

Variants of: B1
run.description: protein stability index of a GFP-peptide fusion (GPS, HEK-293T) (PSI 1-6); higher = more stable;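 further: lentivirally expressed fusions sorted by FACS into six bins by GFP to DsRed ratio, PSI derived from sequencing read proportions per bin multiplied by bin number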
condition.context: c terminus: a fixed tail appended
reported.property: protein stability index

INSERT INTO assay_data (mutation_key, reported_property, quantitative_result) VALUES
  ('S10M', 'protein stability index', 1.64),
  ('L21F', 'protein stability index', 1.98),
  ('D6N', 'protein stability index', 2.37),
  ('F11Y', 'protein stability index', 2.03),
  ('A16T', 'protein stability index', 1.74),
  ('E20R', 'protein stability index', 1.69),
  ('M22N', 'protein stability index', 3.84),
  ('Q1G', 'protein stability index', 1.51),
  ('K18H', 'protein stability index', 1.44),
  ('F11L', 'protein stability index', 1.71),
  ('G3E', 'protein stability index', 2.54),
  ('S10W', 'protein stability index', 1.86),
  ('L21G', 'protein stability index', 3.76),
  ('L21H', 'protein stability index', 2.45),
  ('R14P', 'protein stability index', 1.97),
  ('S10Y', 'protein stability index', 2.56),
  ('K18Q', 'protein stability index', 2.17),
  ('D6I', 'protein stability index', 1.69),
  ('R7Y', 'protein stability index', 1.66),
  ('Q1I', 'protein stability index', 2.48),
  ('L5Q', 'protein stability index', 1.56),
  ('V24L', 'protein stability index', 2.21),
  ('L21M', 'protein stability index', 2.14),
  ('F11W', 'protein stability index', 1.75),
  ('A13T', 'protein stability index', 2.03),
  ('E17R', 'protein stability index', 2.03),
  ('L23I', 'protein stability index', 1.85),
  ('D6F', 'protein stability index', 1.54),
  ('E2Q', 'protein stability index', 1.21),
  ('Q12E', 'protein stability index', 1.83),
  ('V24A', 'protein stability index', 3.83),
  ('D6C', 'protein stability index', 1.78),
  ('E17W', 'protein stability index', 1.02),
  ('K18P', 'protein stability index', 2.07),
  ('Q12H', 'protein stability index', 2.81),
  ('M22H', 'protein stability index', 2.59),
  ('G3M', 'protein stability index', 2.04),
  ('V9C', 'protein stability index', 2.18),
  ('G3V', 'protein stability index', 1.4),
  ('D6G', 'protein stability index', 1.74),
  ('L4H', 'protein stability index', 1.44),
  ('V24P', 'protein stability index', 4.13),
  ('S10K', 'protein stability index', 2.13),
  ('S10N', 'protein stability index', 1.66),
  ('Q1S', 'protein stability index', 2.34),
  ('R7T', 'protein stability index', 1.73);
